Measured values drawn from paper PMC9303693 for this set.

# Type: in vivo, human
# Assay Conditions: both, human, plasma, oral, 50 mg, AUC0‐inf, LS Mean, plasma acalabrutinib; ANOVA, exponentiated LSM; Mild, n 6
Endpoint: AUC (ng·h/mL)
Form entry: value (ng·h/mL) — number only.

Return value of AUC for input CC#CC(=O)N1CCC[C@H]1c1nc(-c2ccc(C(=O)Nc3ccccn3)cc2)c2c(N)nccn12 , no commentary.
366

---

# Type: in vivo, human
# Assay Conditions: both, human, plasma, po, 50 mg, AUC0‐inf, total plasma acalabrutinib; single oral 50-mg dose; Mild (n = 6); geometric mean (geometric CV%)
Endpoint: AUC (ng·h/mL)
Quick note: give the figure in ng·h/mL, leave out the unit.

Tell me its AUC given CC#CC(=O)N1CCC[C@H]1c1nc(-c2ccc(C(=O)Nc3ccccn3)cc2)c2c(N)nccn12 [Acalabrutinib] as the entry.
366
